Assay target: SYK (human) (UniProt P43405)
Measurement protocol: radiometric filter-binding kinase assay
Test context: compound 0.1 µM
Measured endpoint: residual activity (%)

Compound string: O=C(Nc1ccccc1-c1cn2c(CN3CCNCC3)csc2n1)c1cnc2ccccc2n1
Measured value: 109
--
Compound string: CCc1cncnc1N1CCN(Cc2nc3cc(C(F)(F)F)ccc3[nH]2)CC1
Measured value: 121
--
Compound string: c1ccc2c(-c3cnn4cc(-c5ccc(N6CCNCC6)cc5)cnc34)ccnc2c1
Measured value: 82

* * *

Assay target: MARK2 (human)
Measurement protocol: radiometric filter-binding kinase assay
Test context: compound 10.0 µM

Molecule: NC(=O)c1cc2c(-c3cccc(-c4ccccc4)c3)cnc(N)c2s1
residual activity, %: 28

Molecule: CCCC(CCC)C(=O)O
residual activity, %: 104

Molecule: N#Cc1c(O)c2c(-c3ccc(-c4ccccc4O)cc3)csc2[nH]c1=O
residual activity, %: 64

Molecule: O=C(O)c1cc(N=Nc2ccc(S(=O)(=O)Nc3ccccn3)cc2)ccc1O
residual activity, %: 107

Molecule: O=C(N[C@@H](COc1ccc2[nH]c(=O)[nH]c2c1)c1ccccc1)c1cccn(Cc2ccc(F)c(F)c2)c1=O
residual activity, %: 88

Molecule: Cc1ccc(Sc2cnc(Nc3cccc(Br)n3)s2)cc1C(=O)N1CCN(C(=O)CN)CC1
residual activity, %: 44

Molecule: O=S(=O)(c1ccc(F)c2nonc12)N1CCN(c2ncc(C(F)(F)F)cc2Cl)CC1
residual activity, %: 95

Molecule: C=CC(=O)N1CCC[C@@H](n2nc(-c3ccc(Oc4ccccc4)cc3)c3c(N)ncnc32)C1
residual activity, %: 82

Molecule: CC(C)C[C@H](NC(=O)CNC(=O)c1cc(Cl)ccc1Cl)B1OC(=O)CC(CC(=O)O)(C(=O)O)O1 (some centres not stated)
residual activity, %: 81

Molecule: CCNc1nc(Nc2cc(F)c(C(=O)N3CCOCC3)cc2OC)ncc1C(F)(F)F
residual activity, %: 73

Molecule: CCn1c(-c2nonc2N)nc2cncc(CNC3CCNCC3)c21
residual activity, %: 63

Molecule: Oc1ccc(/C=C/c2cc(O)cc(O)c2)cc1
residual activity, %: 86

Molecule: Cc1ccc(=O)n(-c2ccccc2)c1
residual activity, %: 102

Molecule: Cc1ccc(-c2ccc3c(ccc4sc5c(c43)NC[C@@H](C)NC5=O)n2)cn1
residual activity, %: 95

Molecule: CNc1nc(-c2ccc3c(N)n[nH]c3c2)cc(N2C[C@@H](C(=O)NC3CCCCC3)CC[C@H]2C)n1
residual activity, %: 102

Molecule: COc1cc2ncn(-c3cc(OCc4ccccc4S(C)(=O)=O)c(C#N)s3)c2cc1OC
residual activity, %: 35

Molecule: COc1cc(C(=O)N2CCOCC2)c(F)cc1Nc1ncc(C(F)(F)F)c(NC2CC2)n1
residual activity, %: 81

Molecule: NC1(c2ccc(-c3nc4ccn5c(=O)[nH]nc5c4cc3-c3ccccc3)cc2)CCC1
residual activity, %: 94

Molecule: NCC(=O)Nc1ccc(-n2nc(C(F)(F)F)cc2-c2ccc3c(ccc4ccccc43)c2)cc1
residual activity, %: 89

Molecule: O=C(NOC[C@H](O)CO)c1ccc(F)c(F)c1Nc1ccc(I)cc1Cl
residual activity, %: 103

Molecule: CC1=C(CO)C(=O)O[C@@H]([C@@H](C)[C@H]2CC[C@H]3[C@@H]4C[C@H]5O[C@]56[C@@H](O)C=CC(=O)[C@]6(C)C4CC[C@]23C)C1 (some centres not stated)
residual activity, %: 118

Molecule: CCCCCc1ccc(/C=C/[C@H](O)[C@@H](CO)NC)cc1
residual activity, %: 83

// provenance: the kinase profiling compilation of Christmann-Franck et al. (2016)
